# Tested on: IGROV-1
# method summary: NCI tumour cell line growth inhibition, 48 h
Activity calls are given as the source filed them. No stated cut-off is given here; in the data, active = GI50 up to about 1.1 µM and inactive = higher.
Return exactly one item of yes = active, no = inactive

C[C@H](CCC(=O)O)[C@H]1CC[C@H]2[C@@H]3[C@H](O)C[C@@H]4C[C@H](O)CC[C@]4(C)[C@H]3C[C@H](O)[C@]12C: no

Write down the call the test reported for this compound. Item: O=C(CCC(=O)N/N=C/c1ccccc1O)N/N=C/c1ccccc1O no

Same for O=C(CC(c1ccccc1)c1c(O)c2ccccc2oc1=O)c1ccccc1 (stereo not given) no

// next record COC1C(O)C(C)OC(O[C@@H]2C[C@H]3CC[C@@H]4[C@H](CC[C@]5(C)[C@@H](C6=CC(=O)OC6)CC[C@]45O)[C@@]3(C)[C@H](O)C2)C1O (stereo not given in full) yes

Then CC(=O)Nc1c(C)cc2c(nc3n2CCC3OC(C)=O)c1[N+](=O)[O-] (stereo not given) ? no

Next: O=C(O)CSc1ccc2nc3ccccc3c(O)c2c1 no

What about this compound? Cc1cc(Br)c(N2C3=C(CC4=C2CCCC4=O)C(=O)CCC3)c(Br)c1 no

Okay, and CC(=O)c1ccc2c(c1)CC1(C2)Cc2cc3c(c(C(=O)O)c2C1)CCC3 (stereo not given) ? no

Also, O=[N+]([O-])c1cccc(C2=NOC3C4CCC(C4)C23)c1 (stereo not given) please. no

Can you check NC(=O)c1cc2ccc(O)cc2o/c1=N/NC(=O)c1ccccc1 next? no
